# runDescription: growth suppression of yeast trafficking mutant, preliminary HTS, modulators of trafficking downstream of Golgi apparatus project, 1536-format plate, OD 615 nm (AID 637); further: test concentration not given here
# experimentalSetup: yeast transport mutant growth, absorbance 615 nm, 18 h; stronger effect = higher value
Give measured inhibition for each item. Keep answers brief.
One number for each entry, in %.

Previously resolved entries follow.
The reported inhibition of the compound O=C(COC(=O)C1=COCCO1)Nc1ccccc1Oc1ccccc1 was -1.64

The reported inhibition of the compound COc1cccc(/C=N/n2c(C)nc3ccccc32)c1OC was -6.35

The reported inhibition of the compound O=C(C1CC1(c1ccccc1)c1ccccc1)N1CCOCC1 (stereo unspecified) was 1.45

The reported inhibition of the compound CC(C)CSc1nc2ccccc2n1CC(N)=O was 0.67

The reported inhibition of the compound CC1(C)Cc2noc(N)c2C(C)(C)N1OC(=O)c1ccccc1 was -5.4

Required: inhibition, one value per compound below.
1. CCOC(=O)c1cc2c(=O)n3cccc(C)c3nc2n(Cc2ccco2)c1=NC(=O)c1cccnc1
2. COc1cc(=O)[nH]c(SCc2c(F)c(F)c(F)c(F)c2F)n1
3. CC(=O)N1CCc2cc(S(=O)(=O)CCC(=O)N3CCN(c4ccccn4)CC3)ccc21
4. Nc1nnc(-c2ccccc2)c(-c2ccccc2)n1
5. CC1(C)CC(=O)c2cnc(NCc3ccco3)nc2C1
6. Cc1[nH]c(=O)[nH]c(=O)c1S(=O)(=O)N1c2ccc(F)cc2CCC1C (stereo unspecified)

2.58
-10
12
7.42
-8.83
3.17
